Target: Ribonucleoside-diphosphate reductase RR1 (Homo sapiens, UniProt P23921+P31350+Q7LG56)
Sequence (P23921 whole entry): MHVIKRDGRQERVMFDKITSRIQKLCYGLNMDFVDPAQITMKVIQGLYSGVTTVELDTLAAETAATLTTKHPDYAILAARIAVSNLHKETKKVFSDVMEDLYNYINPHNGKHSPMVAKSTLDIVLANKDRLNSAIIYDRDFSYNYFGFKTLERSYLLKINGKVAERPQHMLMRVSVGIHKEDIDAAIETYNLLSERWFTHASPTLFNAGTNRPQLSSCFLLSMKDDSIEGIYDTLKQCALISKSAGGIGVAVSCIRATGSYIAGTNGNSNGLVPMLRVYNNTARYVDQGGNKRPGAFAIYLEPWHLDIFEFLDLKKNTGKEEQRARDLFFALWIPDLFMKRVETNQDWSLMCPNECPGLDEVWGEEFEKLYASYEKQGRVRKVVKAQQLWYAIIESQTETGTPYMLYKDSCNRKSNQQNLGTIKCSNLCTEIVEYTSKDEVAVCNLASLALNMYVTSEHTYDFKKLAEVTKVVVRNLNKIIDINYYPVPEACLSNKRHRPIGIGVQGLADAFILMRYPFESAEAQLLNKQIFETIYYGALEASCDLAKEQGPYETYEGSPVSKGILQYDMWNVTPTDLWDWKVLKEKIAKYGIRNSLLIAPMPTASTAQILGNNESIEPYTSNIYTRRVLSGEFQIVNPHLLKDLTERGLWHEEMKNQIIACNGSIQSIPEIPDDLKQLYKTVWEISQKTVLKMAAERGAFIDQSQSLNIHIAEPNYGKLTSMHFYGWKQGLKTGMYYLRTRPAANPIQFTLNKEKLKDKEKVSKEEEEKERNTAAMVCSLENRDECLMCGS
Sequence (Q7LG56 whole entry): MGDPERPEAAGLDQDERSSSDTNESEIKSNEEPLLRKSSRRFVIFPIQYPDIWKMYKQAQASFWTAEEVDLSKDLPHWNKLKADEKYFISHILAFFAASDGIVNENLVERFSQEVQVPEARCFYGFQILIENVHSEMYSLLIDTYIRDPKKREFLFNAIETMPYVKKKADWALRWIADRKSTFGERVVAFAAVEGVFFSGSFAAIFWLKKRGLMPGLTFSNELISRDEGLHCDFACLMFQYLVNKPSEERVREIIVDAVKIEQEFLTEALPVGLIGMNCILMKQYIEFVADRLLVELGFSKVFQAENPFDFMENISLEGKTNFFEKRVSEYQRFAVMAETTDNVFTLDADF
Sequence (P31350 whole entry): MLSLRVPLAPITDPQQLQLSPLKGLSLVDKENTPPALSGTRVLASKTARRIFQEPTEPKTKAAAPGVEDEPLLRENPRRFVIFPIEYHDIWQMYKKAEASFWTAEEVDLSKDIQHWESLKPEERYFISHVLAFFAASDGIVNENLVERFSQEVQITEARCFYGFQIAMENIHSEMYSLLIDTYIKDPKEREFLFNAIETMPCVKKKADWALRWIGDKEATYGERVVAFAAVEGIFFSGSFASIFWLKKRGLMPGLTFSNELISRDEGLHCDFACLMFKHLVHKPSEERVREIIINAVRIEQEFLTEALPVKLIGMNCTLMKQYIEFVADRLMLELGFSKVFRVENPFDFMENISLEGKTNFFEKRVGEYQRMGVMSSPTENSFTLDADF
Assay: Inhibition of N-terminal 6xHis-tagged Homo sapiens (human) recombinant ribonucleotide reductase M2/M1 expressed in Escherichia coli BL21 (DE3) using [3H]CDP as substrate after 30 min
pIC50: −log10 of the molar value.
endpoint.label: pIC50

Examples with their reported pIC50 follow.
| input.smiles | measurement |
| --- | --- |
| COc1ccccc1NC(=S)N/N=C/c1ccc(O)cc1 | 4.38 |
| Oc1ccc(/C=N/NC(=S)Nc2ccc(Cl)cc2)cc1 | 3.54 |
| Oc1ccc(/C=N/NC(=S)Nc2cccc(O)c2)cc1 | 4.54 |
| Cc1ccccc1NC(=S)N/N=C/c1ccc(O)cc1 | 4.44 |
| O=[N+]([O-])c1ccc(NC(=S)N/N=C/c2ccc(O)cc2)cc1 | 4.35 |
| Oc1ccc(/C=N/NC(=S)Nc2ccccc2O)cc1 | 4.53 |

A: O=[N+]([O-])c1ccccc1NC(=S)N/N=C/c1ccc(O)cc1
B: Oc1ccc(/C=N/NC(=S)Nc2ccccc2)cc1
// query Just tell me: smaller pIC50 value, A or B ? // caller expects the label of the chosen entry
// result B

These measurements were taken from ChEMBL document CHEMBL3046116.
